# Tested on: THRa:RXRa (NR concentration 90 nM, RXRa partner concentration 90 nM)
# MEASUREMENT DESCRIPTION: PBM binding z-score (relative to random genomic background probes); higher = stronger binding; sequences stand for … in GC…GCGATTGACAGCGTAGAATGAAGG
Classification field: enter yes (1) for PBM binding z-score values not below 2, no (0) for values below it.

Worked examples, 5 sequences total:
GGAACCAGGGCAAGTTGATAGCAGAGTTTGATGG: no (0)
TCTGCTAGGTCAGCTGGTCAGCTAACGAGCTGCC: no (0)
ACTAGCAGGCCAAGGGTCAGTCAAGATTAGTCCG: no (0)
ATACCAAGGTGATCGTGAAGTCGTTGATACTAAC: no (0)
CCTGCTAGGTCAATGTTCAGCTAAAGCAGCTCGC: yes (1)

Exercise: Is PBM binding z-score for TATACAGGGTCATAGGCCAGAGTACGAATGTCGA at or above 2?
Key: yes (1)

Exercise: Is PBM binding z-score for ATCTCTACGTAAGACTCAGTTCAGTGAAGAACGC at or above 2?
Key: no (0)

Exercise: Is PBM binding z-score for GGAACGAGGGGAAAGTTGATAGCATCTGTCGACG at or above 2?
Key: no (0)

###

Here, each record is paired with measured PBM binding z-score data.
# Tested on: LXRa homodimer (NR concentration 270 nM)
# MEASUREMENT DESCRIPTION: PBM binding z-score (relative to random genomic background probes); higher = stronger binding; sequences stand for … in GC…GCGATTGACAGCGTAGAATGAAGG
Lab note: jot down the number only; don't add units.

Here is how some sequences turned out for PBM binding z-score.
GCTATTAGTTGAAAGGGTAACCGAATGATTCTCG: 0.254
CCGACTGGGGCAGAAAGGTTGCCATACCATCCGG: -0.611
TCTAGTTGGTCACGGAGGTCACAGACGACGGGTA: 1.88
ATCGAAAGGTCGTGAGGTGAGTGTACAGAAAGGC: 0.411
GCTATTAGTTGTAAGGGCAACCGAATGATTCTCG: 0.235
ACTATTAGTTGAGACGAGGGCATCCGATAGGTTG: 0.0875

Could you now consider this next sequence?
Note to self: PBM binding z-score recorded for ATAGGTAGGTTAGCTGGGGTCATTCAGACTAGGC was 2.97

###

# Tested on: VDR homodimer (NR concentration 270 nM)
# MEASUREMENT DESCRIPTION: PBM binding z-score (relative to random genomic background probes); higher = stronger binding; sequences stand for … in GC…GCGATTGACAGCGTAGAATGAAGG
Classification field: enter met for PBM binding z-score values not below 1, not met for values below it.

Worked examples, 5 sequences total:
TTACCAAGGTGAAGGTCGGTGATCCCTCTGTAGA: not met
CATACAGGGTCAGCTAGGCCAGAGAAGGGACGGC: met
ATCGCTAGGTAACAAGTTCAGTGAAAGAGAGGAC: met
TTACCAAGGTGAGCTGAGATCGTTGATCCAACTC: not met
CCGAGTGGGGCAGAAAGGTTACCATACCATCCGG: not met

Exercise: Is PBM binding z-score for TAGCCTAGGTCATTCAGGGGCCAGTTTAGAAAGC at or above 1?
Key: met

Exercise: Is PBM binding z-score for AATACAGGGTCACTAGGCCGGAGTAGGTACGAAT at or above 1?
Key: met
